measured-target: GlHsp90 (trans-spliced full-length heat shock protein 90) (Giardia duodenalis)
Construct: gene GL50803_0098054; full length Hsp90, N terminus 6x His-tag (Methods text says purified HspN)
Sequence (A0A644F9H9 entry or part of it): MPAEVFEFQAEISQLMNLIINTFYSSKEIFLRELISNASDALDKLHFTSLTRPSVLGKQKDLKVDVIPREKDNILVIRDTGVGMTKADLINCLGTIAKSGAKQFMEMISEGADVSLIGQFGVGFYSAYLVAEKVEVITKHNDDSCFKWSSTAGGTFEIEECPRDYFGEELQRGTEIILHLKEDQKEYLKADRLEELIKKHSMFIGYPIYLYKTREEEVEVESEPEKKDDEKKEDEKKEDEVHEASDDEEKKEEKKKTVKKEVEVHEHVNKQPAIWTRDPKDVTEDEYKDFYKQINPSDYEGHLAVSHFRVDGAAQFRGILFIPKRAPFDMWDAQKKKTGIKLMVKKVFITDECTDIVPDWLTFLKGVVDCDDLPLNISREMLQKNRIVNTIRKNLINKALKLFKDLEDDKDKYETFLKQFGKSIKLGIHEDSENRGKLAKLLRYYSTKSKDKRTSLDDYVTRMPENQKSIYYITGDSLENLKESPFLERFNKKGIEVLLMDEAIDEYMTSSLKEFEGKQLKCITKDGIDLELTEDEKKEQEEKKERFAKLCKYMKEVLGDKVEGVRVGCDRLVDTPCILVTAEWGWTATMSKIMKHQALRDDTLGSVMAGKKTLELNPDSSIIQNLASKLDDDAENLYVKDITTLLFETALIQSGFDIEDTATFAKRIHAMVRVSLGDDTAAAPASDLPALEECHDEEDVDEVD
method: intrinsic tryptophan fluorescence quenching (ex […] nm, em […] nm), single-site fit
Format: binding
measurement-label: Kd (nM)

* COC1=C2C[C@@H](C)C[C@H](OC)[C@H](O)[C@@H](C)/C=C(\C)[C@H](OC(N)=O)[C@@H](OC)/C=C\C=C(/C)C(=O)NC(=CC1=O)C2=O | 1500
